Exercise: for every item that follows, state its recorded IC50.
Molecular target: benzodiazepine receptors
Assay: Affinity for benzodiazepine receptors, displacement of ^3 H-labelled flunitrazepam in membranes from the rear portion of the brain in rats (Test 1)
Conditions: 0.6×10^-9 mol of ^3 H-labelled flunitrazepam; membranes from the rear portion of rat brain; read-out: Test 1: concentration which inhibited 50% of the specific binding of ^3 H-labelled flunitrazepam (IC50)
One number for each entry, in nM.

Look over these answered cases.
1) CN1Cc2c(C(=O)C3CC3)ncn2-c2ccnc(C3CC3)c2C1=O :: 26
2) CN1Cc2c(C(=O)C3CC3)ncn2-c2ccncc2C1=O :: 105

Here is another molecule to look at.
Sample "CN1Cc2c(C(=O)C3CC3)ncn2-c2cccc(C3CC3)c2C1=O" — what was its IC50? 36
